# assay.target: rat NaPi-2b (Rattus norvegicus)
# Construct: expressed in transfected cells; host or cells: Xenopus oocytes injected with cRNA
# Sequence (Q9JJ09 whole entry): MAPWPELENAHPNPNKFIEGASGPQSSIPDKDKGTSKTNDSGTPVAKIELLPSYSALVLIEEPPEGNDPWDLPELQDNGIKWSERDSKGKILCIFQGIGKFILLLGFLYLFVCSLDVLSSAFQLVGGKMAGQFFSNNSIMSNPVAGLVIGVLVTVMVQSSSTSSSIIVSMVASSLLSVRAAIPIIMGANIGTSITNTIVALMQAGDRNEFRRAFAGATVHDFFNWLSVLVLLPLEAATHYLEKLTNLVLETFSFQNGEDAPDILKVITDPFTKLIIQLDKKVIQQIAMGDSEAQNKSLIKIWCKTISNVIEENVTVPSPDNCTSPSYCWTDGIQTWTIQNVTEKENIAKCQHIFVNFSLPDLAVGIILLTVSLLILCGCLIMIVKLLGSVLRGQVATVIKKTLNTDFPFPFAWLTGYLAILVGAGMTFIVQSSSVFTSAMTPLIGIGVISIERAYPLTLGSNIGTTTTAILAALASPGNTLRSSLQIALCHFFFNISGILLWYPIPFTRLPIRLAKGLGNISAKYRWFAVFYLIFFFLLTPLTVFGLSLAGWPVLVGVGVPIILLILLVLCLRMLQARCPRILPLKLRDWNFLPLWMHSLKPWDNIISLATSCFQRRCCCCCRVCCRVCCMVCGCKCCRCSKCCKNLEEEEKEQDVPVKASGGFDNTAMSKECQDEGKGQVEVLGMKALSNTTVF
# test.method.notes: Sodium-dependent phosphate uptake of Xenopus oocytes which expressed NaPi-2b (32P)
# Format: cell-based
# experimental.conditions: phosphate uptake, oocytes expressing rat NaPi-2b; 300 μM, determined from inhibition curve
# Protocol: Pharmacological Test Example 1 Experiment of Sodium-Dependent Phosphate Uptake of Xenopus oocytes which Expressed NaPi-2b Degenerate primers were prepared from sequences of mouse NaPi-2b disclosed in Hilfiker H. et al., Pro Natl Acad Sci USA, 95 (24): 14564-14569, […] and sequences of human and rat NaPi-2a disclosed in Magagnin S. et al., Proc Natl Aca Sci USA, 90 (13): 5979-5983, 1993. RNA was extracted from the rat small intestine using ISOGEN; manufactured by NIPPON GENE CO., LTD (Japan). […]
endpoint.name: inhibition at 300 µM (%)
Report the figure in % without appending any unit label.

Please review the following examples before continuing.
1) COc1ccc(/C=N/NC(=O)c2cc(Br)ccc2NC(=O)c2ccc(CNCCCN(C)c3ccccc3)cc2)cc1 : 52.1
2) COc1cc(OC)cc(C(=O)Nc2ccc(O)cc2C(=O)N/N=C/c2cccc(F)c2)c1 : 37.6
3) O=C(Nc1ccc(Br)cc1C(=O)NNCc1ccc(Cl)c(C(F)(F)F)c1)c1cccc(CSCCO)c1 : 85.2

Query: Entry Cc1csc(C(=O)N/N=C/c2ccc(F)cc2)c1NC(=O)c1cccc(CN2CCN(CCO)CC2)c1 : reported inhibition at 300 µM = ?
Reply: 43.8

Query: Then CCN(CC)c1ccc(/C=N/NC(=O)c2ccccc2NC(=O)c2ccc(OC)c(OC)c2)cc1 ?
Reply: 46.9

Query: Then Cc1ccc(/C=N/NC(=O)c2scc(C)c2NC(=O)c2cccc(CN3CCC(O)CC3)c2)cc1C ?
Reply: 32.2

Query: Then CCN(CC)CCN(C)Cc1cccc(C(=O)Nc2c(C)csc2C(=O)N/N=C/c2ccc(F)cc2)c1 ?
Reply: 58.4

FYI, the data here is from patent US8134015B2.
